Molecular target: MASP-2 CCP2-SP (Homo sapiens (Human))
Sequence (O00187 445-686): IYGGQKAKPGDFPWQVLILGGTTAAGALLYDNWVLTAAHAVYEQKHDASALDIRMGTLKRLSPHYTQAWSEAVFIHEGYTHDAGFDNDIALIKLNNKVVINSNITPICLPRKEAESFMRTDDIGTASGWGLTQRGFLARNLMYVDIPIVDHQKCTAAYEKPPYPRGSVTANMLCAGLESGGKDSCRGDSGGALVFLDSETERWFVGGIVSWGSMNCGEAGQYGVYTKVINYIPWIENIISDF
Sequence (O00187 364-432 partner): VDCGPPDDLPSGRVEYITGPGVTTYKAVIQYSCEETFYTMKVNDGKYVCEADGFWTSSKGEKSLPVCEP
Assay: MASP-2 co-crystallization, X-ray crystallography and structure analysis (H-bonds, van der Waals contacts)
Settings: Table A2-12
Where a name gives a salt, the structure may show the parent alone.
RECORDED_METRIC: van der Waals contact distance, TRP 655 CA to compound atom
No unit in the answer, only the number.

IN: Dear colleague, I am looking for the recorded van der Waals contact distance, TRP 655 CA to compound atom of the following molecule: Cc1cccc([C@H]2CN[C@@H](C(=O)N[C@@H](C)C(=O)NCc3ccc(N)nc3C)C2)c1 [compound 1257, Dihydrochloride]
OUT: 3.57

IN: Dear colleague, I am looking for the recorded van der Waals contact distance, TRP 655 CA to compound atom of the following molecule: "Cc1nc(N)ccc1CNC(=O)[C@H](C)NC(=O)[C@H]1C[C@H](Cc2ccc3ccccc3c2)CN1"
OUT: 3.4

IN: Dear colleague, I am looking for the recorded van der Waals contact distance, TRP 655 CA to compound atom of the following molecule: CC(=O)Nc1ccc(CCN[C@H](CCc2ccccc2)C(=O)N[C@@H](C)C(=O)NCc2ccc(N)nc2C)cc1 [compound 1368, Dihydrochloride]
OUT: 3.29

IN: Dear colleague, I am looking for the recorded van der Waals contact distance, TRP 655 CA to compound atom of the following molecule: "Cc1nc(N)ccc1CNC(=O)[C@H](C)NC(=O)[C@H]1C[C@@H](c2ccccc2)CCN1C"
OUT: 3.34

IN: Dear colleague, I am looking for the recorded van der Waals contact distance, TRP 655 CA to compound atom of the following molecule: Cc1nc(N)ccc1CNC(=O)[C@H](C)NC(=O)[C@H]1C[C@H](Cc2ccccc2Br)CN1 [compound 1372, Di-trifluoroacetate salt]
OUT: 3.48

IN: Dear colleague, I am looking for the recorded van der Waals contact distance, TRP 655 CA to compound atom of the following molecule: "Cc1nc(N)ccc1CNC(=O)[C@H](C)NC(=O)c1cc(Cc2ccccc2)n[nH]1"
OUT: 3.29

IN: Dear colleague, I am looking for the recorded van der Waals contact distance, TRP 655 CA to compound atom of the following molecule: "C[C@H](NC(=O)[C@H]1C[C@H](c2ccccc2)CN1)C(=O)NCc1ccc(N)nc1"
OUT: 3.36
